The following binders are listed with their measured pIC50 values.
# target-under-test: beta-catenin (human)
# Sequence (B6V8E6 146-665 limits assumed): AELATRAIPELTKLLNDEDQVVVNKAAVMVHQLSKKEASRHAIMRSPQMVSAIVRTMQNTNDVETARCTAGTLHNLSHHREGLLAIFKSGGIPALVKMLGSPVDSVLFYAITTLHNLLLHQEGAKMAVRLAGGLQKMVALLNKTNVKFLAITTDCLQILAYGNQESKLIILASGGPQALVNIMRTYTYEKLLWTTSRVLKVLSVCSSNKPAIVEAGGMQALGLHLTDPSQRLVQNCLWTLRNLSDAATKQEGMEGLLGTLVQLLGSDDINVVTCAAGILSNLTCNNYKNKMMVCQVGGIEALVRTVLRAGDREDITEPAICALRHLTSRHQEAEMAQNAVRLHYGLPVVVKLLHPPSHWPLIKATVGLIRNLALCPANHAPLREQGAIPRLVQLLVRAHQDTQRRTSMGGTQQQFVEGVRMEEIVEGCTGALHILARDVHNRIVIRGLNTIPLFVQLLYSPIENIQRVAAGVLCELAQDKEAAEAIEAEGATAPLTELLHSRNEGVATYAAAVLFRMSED
# assay-procedure: fluorescence polarization
pIC50: −log10 of the molar value. *1 amine or outer side, *2 acyl side, *3 side chain or, on linkers, in order; H or OH if unused. Bridges are numbered along the chain shown (N, C = ends). Primed or numbered codes have the meaning given here. [ ]: non-standard residue; d: D form. PyrS2(6) = (S)-3-amino-1-((pent-4-en-1-yloxy)carbonyl)pyrrolidine-3-carboxylic acid, stapled with another olefin-containing amino acid residue through the olefin group, O=C(OCCCC=[*:3])N1CC[C@@](N[*:1])(C(=O)[*:2])C1; B5(4) = 2-amino-2-(pent-4-en-1-yl)hept-6-enoic acid, stapled through each of its two olefin groups with other olefin-containing amino acid residues, O=C(C(CCCC=[*:3])(CCCC=[*:4])N[*:1])[*:2]; PyrS2(3) = (S)-3-amino-1-((pent-4-en-1-yloxy)carbonyl)pyrrolidine-3-carboxylic acid, olefin residue, C=CCCCOC(=O)N1CC[C@@](N[*:1])(C(=O)[*:2])C1; B5(3) = 2-amino-2-(pent-4-en-1-yl)hept-6-enoic acid, two olefin arms, C=CCCCC(CCCC=C)(N[*:1])C(=O)[*:2]; Phe(3-COOH) = N[C@@H](Cc1cccc(C(=O)O)c1)C(=O)O; Bta = N[C@@H](Cc1csc2ccccc12)C(=O)O; αAllylPro = C=CC[C@@]1(C(=O)O)CCCN1; tBuAla = CC(C)(C)C[C@H](N)C(=O)O; 3Thi = N[C@@H](Cc1ccsc1)C(=O)O; GlnR = not defined here

Task: Recorded pIC50 for Ac-[αAllylPro]DL[B5(4)]DDAAFK[PyrS2(6)][3Thi][Bta][GlnR]-NH2 (bridge 10-14; not fully specified (bridges); printed as Ac-PL3-Asp-Leu-B5-Asp-Asp-Ala-Ala-Phe-Lys*3-PyrS2-3Thi-BztA-GlnR*3-NH2; reading uncertain) [I-3] , please?
Output: > 7.30

Task: Same again, this time with Ac-[αAllylPro]D[tBuAla][B5(3)]D[Phe(3-COOH)]TAFK[PyrS2(3)][3Thi][Bta][GlnR]A-NH2 (bridge 10-14; not fully specified (bridges); printed as Ac-PL3-Asp-Npg-B5-Asp-3COOHF-Thr-Ala-Phe-Lys*3-PyrS2-3Thi-BztA-GlnR*3-Ala-NH2; reading uncertain) [I-72]
Output: > 7.30
